- test-name: Inhibition of ET-1 stimulated arachidonic acid release in rabbit renal vascular smooth muscle cells
pIC50: −log10 of the molar value. Counter-ions that a name gives are not always drawn. Numbered stars: 1 amine (or outer) side, 2 acyl side, 3 side chain; on linkers, the order of the positions; unused ones are H or OH. Square brackets hold non-standard residues; d marks the D form. Peptide text beside a SMILES is read from it. * marks the point of attachment. Dip = N[C@H](C(=O)O)C(c1ccccc1)c1ccccc1; CO = O=C([*:1])[*:2]; Tfa = O=C(C(F)(F)F)*
quantity-kind: pIC50

CC[C@H](C)[C@H](NC(=O)[C@H](CC(=O)O)NC(=O)[C@H](CC(C)C)NC(=O)[C@@H](NC(=O)C(F)(F)F)C(c1ccccc1)c1ccccc1)C(=O)N[C@H](C(=O)N[C@@H](Cc1c[nH]c2ccccc12)C(=O)O)[C@@H](C)CC (Tfa-[Dip]LDIIW-OH) | 5.77

(A) CC[C@H](C)[C@H](NC(=O)[C@H](CC(=O)O)NC(=O)[C@H](CC(C)C)NC(=O)[C@@H](NC(=O)NC)C(c1ccccc1)c1ccccc1)C(=O)N[C@H](C(=O)N[C@@H](Cc1c[nH]c2ccccc12)C(=O)O)[C@@H](C)CC ({NHMe-CO}-[Dip]LDIIW-OH)
(B) CC[C@H](C)[C@H](NC(=O)[C@H](CC(=O)O)NC(=O)[C@@H](Cc1ccccc1)NC(=O)[C@@H](NC(C)=O)C(c1ccccc1)c1ccccc1)C(=O)N[C@H](C(=O)N[C@@H](Cc1c[nH]c2ccccc12)C(=O)O)[C@@H](C)CC
Enquiry: Exercise: compare A and B ; which one has the greater pIC50? Answer by stating the label of the chosen item.
Return: A
(A: 6.55, B: 6.28)

* * *

- test-name: Inhibition of ET-1 stimulated arachidonic acid release in rabbit renal vascular smooth muscle cells
Square brackets hold non-standard residues; d marks the D form. Peptide text beside a SMILES is read from it. dDip = N[C@@H](C(=O)O)C(c1ccccc1)c1ccccc1; Dip = N[C@H](C(=O)O)C(c1ccccc1)c1ccccc1
quantity-kind: IC50 (µM)

(A) CC[C@H](C)[C@H](NC(=O)[C@H](CCC(=O)O)NC(=O)[C@H](CC(C)C)NC(=O)[C@@H](NC(C)=O)C(c1ccccc1)c1ccccc1)C(=O)N[C@H](C(=O)N[C@@H](Cc1c[nH]c2ccccc12)C(=O)O)[C@@H](C)CC (Ac-[Dip]LEIIW-OH)
(B) CC[C@H](C)[C@H](NC(=O)[C@H](CC(=O)O)NC(=O)[C@H](CC(C)C)NC(=O)[C@H](NC(C)=O)C(c1ccccc1)c1ccccc1)C(=O)N[C@H](C(=O)N[C@@H](Cc1c[nH]c2ccccc12)C(N)=O)[C@@H](C)CC (Ac-[dDip]LDIIW-NH2)
Enquiry: Exercise: compare A and B ; which one has the greater IC50? Answer by stating the label of the chosen item.
Return: B

* * *

- test-name: Inhibition of ET-1 stimulated arachidonic acid release in rabbit renal vascular smooth muscle cells
Square brackets hold non-standard residues; d marks the D form. Peptide text beside a SMILES is read from it. Dip = N[C@H](C(=O)O)C(c1ccccc1)c1ccccc1
quantity-kind: pIC50
FYI, pIC50 means -log10 of a concentration in mol per litre.

Enquiry: Field request: pIC50 | item: CC[C@H](C)[C@H](NC(=O)[C@@H](NC(=O)[C@H](CC(=O)O)NC(=O)[C@H](CC(C)C)NC(=O)[C@@H](NC(C)=O)C(c1ccccc1)c1ccccc1)C(C)C)C(=O)N[C@@H](Cc1c[nH]c2ccccc12)C(=O)O (Ac-[Dip]LDVIW-OH)
Return: 7.54

* * *

- test-name: Inhibition of ET-1 stimulated arachidonic acid release in rabbit renal vascular smooth muscle cells
pIC50: −log10 of the molar value. Square brackets hold non-standard residues; d marks the D form. Peptide text beside a SMILES is read from it. * marks the point of attachment. Dip = N[C@H](C(=O)O)C(c1ccccc1)c1ccccc1; Ms = CS(=O)(=O)*
quantity-kind: pIC50

(1) CC[C@H](C)[C@H](NC(=O)[C@H](CC(=O)O)NC(=O)[C@H](CC(C)C)NC(=O)[C@@H](NS(C)(=O)=O)C(c1ccccc1)c1ccccc1)C(=O)N[C@H](C(=O)N[C@@H](Cc1c[nH]c2ccccc12)C(=O)O)[C@@H](C)CC (Ms-[Dip]LDIIW-OH)
(2) CC[C@H](C)[C@H](NC(=O)[C@H](CC(=O)O)NC(=O)[C@H](CCCNC(=N)N)NC(=O)[C@H](NC(C)=O)C(c1ccccc1)c1ccccc1)C(=O)N[C@H](C(=O)N[C@@H](Cc1c[nH]c2ccccc12)C(=O)O)[C@@H](C)CC
Enquiry: Exercise: compare 1 and 2 ; which one has the greater pIC50? Answer by stating the label of the chosen item.
Return: 2
(2: 7.85, 1: 5.68)

* * *

- test-name: Inhibition of ET-1 stimulated arachidonic acid release in rabbit renal vascular smooth muscle cells
pIC50: −log10 of the molar value. Square brackets hold non-standard residues; d marks the D form. Peptide text beside a SMILES is read from it. dDip = N[C@@H](C(=O)O)C(c1ccccc1)c1ccccc1; Dip = N[C@H](C(=O)O)C(c1ccccc1)c1ccccc1; Orn = NCCC[C@H](N)C(=O)O
quantity-kind: pIC50

Worked set:
CC[C@H](C)[C@H](NC(=O)[C@H](Cc1ccccc1)NC(=O)[C@H](CC(=O)O)NC(=O)[C@H](CC(C)C)NC(=O)[C@@H](NC(C)=O)C(c1ccccc1)c1ccccc1)C(=O)N[C@@H](Cc1c[nH]c2ccccc12)C(=O)O (Ac-[Dip]LDFIW-OH) | 6.80
CC[C@H](C)[C@H](NC(=O)[C@H](CC(=O)O)NC(=O)[C@H](CCCN)NC(=O)[C@@H](NC(C)=O)C(c1ccccc1)c1ccccc1)C(=O)N[C@H](C(=O)N[C@@H](Cc1c[nH]c2ccccc12)C(=O)O)[C@@H](C)CC (Ac-[Dip][Orn]DIIW-OH) | 7.52

(I) CC[C@H](C)[C@H](NC(=O)[C@H](CC(=O)O)NC(=O)[C@H](CC(C)C)NC(=O)[C@H](NC(C)=O)C(c1ccccc1)c1ccccc1)C(=O)N[C@@H](CC(C)C)C(=O)N[C@@H](Cc1c[nH]c2ccccc12)C(=O)O
(II) CC[C@H](C)[C@H](NC(=O)[C@H](C)NC(=O)[C@H](CC(C)C)NC(=O)[C@@H](NC(C)=O)C(c1ccccc1)c1ccccc1)C(=O)N[C@H](C(=O)N[C@@H](Cc1c[nH]c2ccccc12)C(=O)O)[C@@H](C)CC (Ac-[Dip]LAIIW-OH)
Enquiry: Exercise: compare I and II ; which one has the greater pIC50? Answer by stating the label of the chosen item.
Return: II
(II: 7.15, I: 6.47)

(P) CC[C@H](C)[C@H](NC(=O)[C@H](CCC(=O)O)NC(=O)[C@H](CC(=O)O)NC(=O)[C@H](CC(C)C)NC(=O)[C@H](NC(C)=O)C(c1ccccc1)c1ccccc1)C(=O)N[C@@H](Cc1c[nH]c2ccccc12)C(=O)O (Ac-[dDip]LDEIW-OH)
(Q) CC[C@H](C)[C@H](NC(=O)[C@H](CC(=O)O)NC(=O)[C@H](CCC(=O)O)NC(=O)[C@H](NC(C)=O)C(c1ccccc1)c1ccccc1)C(=O)N[C@H](C(=O)N[C@@H](Cc1c[nH]c2ccccc12)C(=O)O)[C@@H](C)CC (Ac-[dDip]EDIIW-OH)
Enquiry: Between P and Q , which one shows the smaller pIC50 number? Answer by stating the label of the chosen item.
Return: P
(P: 6.35, Q: 6.89)

* * *

- test-name: Inhibition of ET-1 stimulated arachidonic acid release in rabbit renal vascular smooth muscle cells
pIC50: −log10 of the molar value. Square brackets hold non-standard residues; d marks the D form. Peptide text beside a SMILES is read from it. Dip = N[C@H](C(=O)O)C(c1ccccc1)c1ccccc1
quantity-kind: pIC50

Worked set:
CC[C@H](C)[C@H](NC(=O)[C@H](CC(=O)O)NC(=O)[C@H](CC(C)C)NC(=O)[C@@H](NC(C)=O)C(c1ccccc1)c1ccccc1)C(=O)N[C@@H](CCCCN)C(=O)N[C@@H](Cc1c[nH]c2ccccc12)C(=O)O (Ac-[Dip]LDIKW-OH) | < 5.00
CC[C@H](C)[C@H](NC(=O)[C@H](C)NC(=O)[C@H](CC(=O)O)NC(=O)[C@H](CC(C)C)NC(=O)[C@H](NC(C)=O)C(c1ccccc1)c1ccccc1)C(=O)N[C@@H](Cc1c[nH]c2ccccc12)C(=O)O | 6.38

Continue with the molecule presented below.
Enquiry: Field request: pIC50 | item: CC[C@H](C)[C@H](NC(=O)[C@H](CCCCN)NC(=O)[C@H](CC(=O)O)NC(=O)[C@H](CC(C)C)NC(=O)[C@H](NC(C)=O)C(c1ccccc1)c1ccccc1)C(=O)N[C@@H](Cc1c[nH]c2ccccc12)C(=O)O
Return: < 5.00

Hello, the source for this data is BindingDB's records for doi:10.1021/jm00015a003, in case you need it.
